What inhibition was measured for each of the following?
Assay: inhibitors of the yeast RAM network, pilot screen, dse1pr::URA3 reporter, 5-FOA selection (AID 869);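 further: 0% = DMSO wells with no growth and 100% = 10 µM 1-NA-PP1 with full growth; RAM network block rescues cells from 5-FOA so hits raise OD615 growth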
Details: S. cerevisiae dse1pr::URA3 5-FOA growth, OD615, 2 d; at 10 µM; stronger effect = higher value; strain carries analog-sensitive mutant Cbk1 kinase
Numbers only, in %.

Observe how each entry below is paired with its result.
INSERT INTO measurements (item_smiles, measured_metric, readout_number) VALUES
  ('O=C(Cn1cc2c(n1)CCCCC2)NCc1cccs1', 'inhibition', 0.935),
  ('CCOC(=O)c1c(CC(C)C)csc1NC=O', 'inhibition', 1.18),
  ('COc1ccc(C(=O)Nc2cc(=O)n(C)c(=O)n2C)cc1OC', 'inhibition', 1.09);

API: the following record is the query input.
Q. Reported inhibition, compound CC(=O)Nc1ccc(NC(=O)c2oc3cc(C)c(C)cc3c2C)cc1 : ____
A. 2.38

----------
Experiment: reducers of endogenous Her2 protein level, primary screen, SKBR3 breast tumor cells, AlphaScreen, ATP viability (AID 461);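 on viability: percent of carrier control wells set as 100% viability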
Conditions: 18-24 h, measured here: SKBR3 viability, ATP luminescence, at 10 µM
For each entry below, report its viability value.
Give bare numbers, in %.

These solved cases illustrate the format of a correct answer.
INSERT INTO measurements (compound, measured_metric, unit_spec, readout_number) VALUES
  ('Nc1ccc(S(=O)(=O)Nc2ncccn2)cc1', 'viability', '%', 96.5),
  ('COC(=O)n1c(=S)oc2cc(Cl)ccc21', 'viability', '%', 102),
  ('O=C(O)C1CCCN1C(=O)Nc1ccc(F)cc1 (stereo unspecified)', 'viability', '%', 87);

I need viability for every entry listed below, if you could help.
1. O=c1ccc2cc3c([nH]c4ccc(Br)cc43)oc-2c1O
2. Nc1ccc2cn[nH]c2c1
3. CC(O)c1nc2ccccc2n1C1CCCCC1 (stereo unspecified)
4. O=C(OCc1ccc2c(c1)OCO2)c1ccc(S(=O)(=O)N2CCCCC2)cc1

A.
[146, 100, 104, 75.5]

----------
Target: Receptor tyrosine-protein kinase erbB-2 (Homo sapiens)
Test: reducers of endogenous Her2 protein level, primary screen, SKBR3 breast tumor cells, AlphaScreen, ATP viability (AID 461);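 on Her2 level: lower value means less Her2 protein in the cells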;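 on viability: percent of carrier control wells set as 100% viability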
Conditions: 18-24 h, at 10 µM, stronger effect = lower value
Exam item: assign Fulfilled to entries whose Her2 level is below 90% and Not fulfilled to entries at or above 90%. Note that a value of exactly 90% receives Not fulfilled.

Use the examples below as a reference point.
INSERT INTO measurements (molecule, class_assignment) VALUES
  ('CCOC(=O)C1=C(c2ccccc2)N2CCN=C2S1', 'Not fulfilled'),
  ('CC1=C(C(=O)NC2CCC(C)CC2)C2(CCC(C)CC2)OC1=O (stereo not given)', 'Fulfilled'),
  ('O=C(O)c1cc2c(s1)CCCC2', 'Not fulfilled'),
  ('C=C(c1cccc2ccccc12)P(=O)(O)O', 'Not fulfilled');

Q. Does Cc1ccc(S(=O)(=O)CCc2nnc(NC(=O)c3cnccn3)s2)cc1 have Her2 level strictly under 90%?
A. Fulfilled

Q. Below 90% on Her2 level? Entry CCOC(=O)C1CCN(c2c(Nc3ccc4c(c3)OCCO4)c(=O)c2=O)CC1
A. Not fulfilled

Q. Quick check: does CCCCOc1ccc(OCCCN2CCOCC2)cc1 have Her2 level under 90%?
A. Not fulfilled

----------
Experiment: reversal of MRP1-mediated doxorubicin resistance, pilot screen, H69AR cells, doxorubicin co-treatment (AID 601)
Conditions: H69AR cells + 2 uM doxorubicin, CellTiter-Glo, 72 h; at 10 µM; stronger effect = higher value
measured_metric: differential viability (reversal) (%)
Numbers only, in %.

Some molecules with recorded differential viability (reversal):
INSERT INTO assay_data (molecule, measured_metric, unit_spec, readout_number) VALUES
  ('COC(=O)CC1SCCNC1=O (configuration not stated)', 'differential viability (reversal)', '%', 5.06),
  ('O=C(Nc1ccccc1C(F)(F)F)c1cc(S(=O)(=O)N2CCOCC2)ccc1F', 'differential viability (reversal)', '%', 8.93),
  ('O=C(NC1CCCC1)c1ccc2nc[nH]c2c1', 'differential viability (reversal)', '%', 9.56),
  ('CCS(=O)(=O)c1nc2ccccc2n1CC(=O)N1CCCCC1', 'differential viability (reversal)', '%', 3.6),
  ('Cc1cc(C)n2nc(C(=O)NCc3ccco3)nc2n1', 'differential viability (reversal)', '%', 4.53),
  ('CC(n1cnnn1)C12CC3CC(CC(C3)C1)C2 (configuration not stated)', 'differential viability (reversal)', '%', 11.3),
  ('COc1ccc(Cn2c(-c3ccco3)nc3oc4ccccc4c(=O)c3c2=O)cc1', 'differential viability (reversal)', '%', 14.2),
  ('COCCNC(=O)CSc1nc(-c2ccc(OC)c(OC)c2)cc(C(F)(F)F)n1', 'differential viability (reversal)', '%', -11.1);

Parameters: items (list). Returns: differential viability (reversal) for each item.
1. c1ccc(SCc2nc3ccccc3[nH]2)nc1
2. COc1cccc(NS(=O)(=O)c2cc(C)sc2C)c1
3. CCOC(=O)c1[nH]c(C)c(C(=O)NCc2ccccn2)c1C
4. Cn1c(=O)n(CC(=O)OCc2ccccc2)c(=O)c2c1nc1n2CCCN1C1CCCCC1

A.
-6.88
2.18
4.79
32.8

----------
Assay: inhibitors of the yeast RAM network, pilot screen, dse1pr::URA3 reporter, 5-FOA selection (AID 869);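 further: 0% = DMSO wells with no growth and 100% = 10 µM 1-NA-PP1 with full growth; RAM network block rescues cells from 5-FOA so hits raise OD615 growth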
Settings: S. cerevisiae dse1pr::URA3 5-FOA growth, OD615, 2 d; at 10 µM; stronger effect = higher value; strain carries analog-sensitive mutant Cbk1 kinase
measured_metric: inhibition (%)
Give bare numbers, in %.

Recorded inhibition, per entry:
INSERT INTO results (compound, unit_spec, readout_number) VALUES
  ('COc1ccccc1CNC(=O)CN1CCN(Cc2ccc(Cl)cc2)C1=O', '%', 1.5),
  ('Cn1c(C(=O)NCc2cccs2)cc2c(=O)n(C)c3ccccc3c21', '%', 2.62),
  ('Cc1cccc(Nc2ncnc3nc[nH]c23)c1C', '%', 2.98);

Now for the compound whose inhibition we want.
Q. Form field: reported inhibition of CCC(c1ccccc1)c1nc(-c2ccccn2)no1 (centres undefined)
A. 0.495

----------
Assay: viability gain of MRP-1-high H69AR cells under doxorubicin, pilot screen, MRP-1 activator project, CellTiter-Glo, duplicate (AID 807);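 further: compound pretreatment 18-22 h then 72 h combined with doxorubicin; 0% = doxorubicin alone and 100% = vehicle without doxorubicin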
Conditions: H69AR viability with doxorubicin, CellTiter-Glo luminescence; at 10 µM; stronger effect = higher value
Could you please report measured viability increase for the items listed next?
One number for each entry, in %.

Solved cases (4 shown):
INSERT INTO results (compound, measured_metric, readout_number) VALUES
  ('Cc1cc(-c2c(C)n([O-])c(C)c(C)[n+]2=O)ccc1F', 'viability increase', 0.1),
  ('CC1CCN(C(=O)CSc2nc(N)c3c4c(sc3n2)CN(C)CC4)CC1', 'viability increase', -3.86),
  ('O=C(CCCSc1nc2ccccc2s1)NCc1ccco1', 'viability increase', -2.85),
  ('COc1cccc(C2CC(c3ccc(Cl)cc3)n3nc(N)nc3N2)c1 (stereo not given)', 'viability increase', 0.04);

Q. Using the record for COc1cc(Nc2cc(C)nc3nc(C)nn23)cc(OC)c1OC , report its viability increase.
A. -1.11

----------
Molecular target: Receptor tyrosine-protein kinase erbB-2 (Homo sapiens)
Assay: reducers of endogenous Her2 protein level, primary screen, SKBR3 breast tumor cells, AlphaScreen, ATP viability (AID 461);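 on Her2 level: lower value means less Her2 protein in the cells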;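 on viability: percent of carrier control wells set as 100% viability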
Conditions: 18-24 h, at 10 µM, stronger effect = lower value
Kindly state Her2 level for each of the entries shown.
Answers are plain numbers, in %.

Answered cases to consult:
INSERT INTO assay_data (molecule, readout_number) VALUES
  ('O=[n+]1c2c(n([O-])c3cc(F)c(N4CCCC4)cc31)CCC2', 86.5),
  ('O=C(CN1C(=O)c2cccc3cccc1c23)N1CCN(c2ccccc2)CC1', 103),
  ('COc1ccc(N2CCN(c3ncnc4c3cnn4-c3ccc(C)cc3C)CC2)cc1', 72.5),
  ('CC(C)(C)NC[C@H](O)COc1nsnc1N1CCOCC1', 110),
  ('OC(COc1ccc2ccccc2c1)CN1CCOCC1 (centres undefined)', 87),
  ('CCCC1(C(=O)OCC)NC(c2ccc(N(C)C)cc2)C2C(=O)N(c3ccccc3)C(=O)C21 (centres undefined)', 99),
  ('O=C(Nc1ccccc1)N(O)c1ccc(Cl)cc1', 79),
  ('Cc1cc(N2C(=O)C3C4C=CC(C4)C3C2=O)ccc1Br (centres undefined)', 99.5);

For every item below, please supply its Her2 level.
1. Cc1ccc2cc3cc(C(=O)N4CC(C)CC(C)C4)oc3nc2c1 (centres undefined)
2. O=C1CCCN1CCCNc1ncnc2c1[nH]c1ccc(Cl)cc12
3. CC(C(=O)Nc1ccccc1-c1ccccc1)N1CCOCC1 (centres undefined)
4. N#C/C(=C(/O)CN1CCOCC1)c1nc2ccccc2s1
5. CCCN1CCN(CCCNC(=O)C2CCCN(c3nc4ccc(OCC)cc4s3)C2)CC1 (centres undefined)

A.
1. 78.5
2. 81
3. 97.5
4. 145
5. 118

This collection of values is drawn from PubChem BioAssay.
